Where do the numbers come from? From patent US20210238260.

I'd appreciate it if you could supply % of WT kcat/KM values for the items below.
# system: Factor X (FX), P00742
# Sequence (P00742 whole entry, looked up): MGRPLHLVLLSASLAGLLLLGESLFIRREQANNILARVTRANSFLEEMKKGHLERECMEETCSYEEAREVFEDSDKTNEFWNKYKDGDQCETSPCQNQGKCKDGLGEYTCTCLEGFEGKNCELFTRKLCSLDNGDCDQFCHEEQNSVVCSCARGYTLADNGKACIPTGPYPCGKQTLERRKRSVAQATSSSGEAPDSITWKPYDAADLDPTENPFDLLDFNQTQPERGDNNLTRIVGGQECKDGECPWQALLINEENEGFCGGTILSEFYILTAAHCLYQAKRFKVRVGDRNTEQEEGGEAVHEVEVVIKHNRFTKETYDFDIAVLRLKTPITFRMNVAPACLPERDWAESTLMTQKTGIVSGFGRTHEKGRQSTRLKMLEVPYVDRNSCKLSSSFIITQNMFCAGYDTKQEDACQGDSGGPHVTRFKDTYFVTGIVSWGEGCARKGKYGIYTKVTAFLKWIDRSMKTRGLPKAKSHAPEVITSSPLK
Your answer is read as %, so omit the unit and give the number.

Query string: Please look up its % of WT kcat/KM: FIXa variant R318Y/R338E/R403E/E410N (protein) chain 1: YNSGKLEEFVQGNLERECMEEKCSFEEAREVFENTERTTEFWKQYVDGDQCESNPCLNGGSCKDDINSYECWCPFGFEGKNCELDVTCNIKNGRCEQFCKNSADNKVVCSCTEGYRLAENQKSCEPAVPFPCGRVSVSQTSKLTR chain 2: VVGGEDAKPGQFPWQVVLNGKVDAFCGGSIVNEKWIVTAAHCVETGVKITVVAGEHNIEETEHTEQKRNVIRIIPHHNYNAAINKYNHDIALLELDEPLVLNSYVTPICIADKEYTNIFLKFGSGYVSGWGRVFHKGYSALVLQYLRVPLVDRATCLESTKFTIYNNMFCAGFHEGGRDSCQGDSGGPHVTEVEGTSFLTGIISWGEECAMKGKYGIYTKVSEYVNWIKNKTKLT
Result string: 320

Query string: Please look up its % of WT kcat/KM: FIXa-Y155F/K228N/R318Y/R338E/R403E/E410N (protein) chain 1: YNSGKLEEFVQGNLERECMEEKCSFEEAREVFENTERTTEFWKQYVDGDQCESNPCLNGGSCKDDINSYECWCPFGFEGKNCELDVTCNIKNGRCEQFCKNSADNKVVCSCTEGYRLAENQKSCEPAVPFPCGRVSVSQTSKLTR chain 2: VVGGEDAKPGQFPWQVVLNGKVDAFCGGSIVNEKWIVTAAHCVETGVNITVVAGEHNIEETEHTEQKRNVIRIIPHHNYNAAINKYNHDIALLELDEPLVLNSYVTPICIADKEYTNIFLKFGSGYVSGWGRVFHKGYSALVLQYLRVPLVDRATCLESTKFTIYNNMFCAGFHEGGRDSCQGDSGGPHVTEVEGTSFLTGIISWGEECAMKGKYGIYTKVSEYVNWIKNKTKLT
Result string: 356

Query string: Please look up its % of WT kcat/KM: FIXa-Y155F/K247N/N249S/R318Y/R338E/R403E/E410N (protein) chain 1: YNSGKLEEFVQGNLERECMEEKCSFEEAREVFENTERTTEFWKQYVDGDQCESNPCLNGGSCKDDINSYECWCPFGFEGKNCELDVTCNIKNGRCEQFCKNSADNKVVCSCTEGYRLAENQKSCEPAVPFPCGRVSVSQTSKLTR chain 2: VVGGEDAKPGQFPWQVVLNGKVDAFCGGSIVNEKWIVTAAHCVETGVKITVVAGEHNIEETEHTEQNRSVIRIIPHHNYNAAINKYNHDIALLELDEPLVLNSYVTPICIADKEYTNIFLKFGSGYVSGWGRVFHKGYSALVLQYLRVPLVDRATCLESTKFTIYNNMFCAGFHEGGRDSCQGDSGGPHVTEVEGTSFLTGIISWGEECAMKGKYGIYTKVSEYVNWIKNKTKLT
Result string: 405

Query string: Please look up its % of WT kcat/KM: FIXa-D203N/F205T/E410N (protein) chain 1: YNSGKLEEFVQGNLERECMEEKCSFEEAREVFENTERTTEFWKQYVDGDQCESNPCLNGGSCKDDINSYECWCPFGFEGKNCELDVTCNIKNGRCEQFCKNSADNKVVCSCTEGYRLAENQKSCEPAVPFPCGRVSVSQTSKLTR chain 2: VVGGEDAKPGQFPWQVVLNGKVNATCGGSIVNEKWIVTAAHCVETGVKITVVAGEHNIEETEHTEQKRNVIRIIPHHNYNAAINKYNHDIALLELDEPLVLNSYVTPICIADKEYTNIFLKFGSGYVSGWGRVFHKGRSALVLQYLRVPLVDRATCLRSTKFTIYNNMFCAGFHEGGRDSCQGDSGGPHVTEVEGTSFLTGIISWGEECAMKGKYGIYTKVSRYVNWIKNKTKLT
Result string: 94

Query string: Please look up its % of WT kcat/KM: FIXa variant D104N/K106S/R318Y/R338E/E410N (protein) chain 1: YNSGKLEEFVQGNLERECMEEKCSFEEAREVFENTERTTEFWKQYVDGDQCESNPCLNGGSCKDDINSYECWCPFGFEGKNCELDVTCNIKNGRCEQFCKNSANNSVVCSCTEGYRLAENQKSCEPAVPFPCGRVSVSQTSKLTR chain 2: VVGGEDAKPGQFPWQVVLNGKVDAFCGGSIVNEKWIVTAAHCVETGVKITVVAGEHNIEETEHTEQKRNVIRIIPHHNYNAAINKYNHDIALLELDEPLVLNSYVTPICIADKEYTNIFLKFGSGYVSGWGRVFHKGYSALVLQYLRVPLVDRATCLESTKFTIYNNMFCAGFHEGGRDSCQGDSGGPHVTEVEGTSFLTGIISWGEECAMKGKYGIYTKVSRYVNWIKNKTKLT
Result string: 564

Query string: Please look up its % of WT kcat/KM: FIXa-D104N/K106S/Y155F/K228N/K247N/N249S (protein) chain 1: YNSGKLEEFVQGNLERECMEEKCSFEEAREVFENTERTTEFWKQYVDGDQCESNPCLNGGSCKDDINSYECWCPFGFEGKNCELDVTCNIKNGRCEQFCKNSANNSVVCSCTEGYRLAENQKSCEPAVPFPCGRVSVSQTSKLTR chain 2: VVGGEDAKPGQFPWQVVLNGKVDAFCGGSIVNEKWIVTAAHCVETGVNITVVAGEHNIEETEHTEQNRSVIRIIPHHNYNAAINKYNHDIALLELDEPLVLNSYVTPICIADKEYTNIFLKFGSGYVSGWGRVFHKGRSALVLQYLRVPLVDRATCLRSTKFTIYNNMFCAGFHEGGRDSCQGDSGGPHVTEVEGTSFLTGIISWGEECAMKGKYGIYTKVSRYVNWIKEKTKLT
Result string: 137

Query string: Please look up its % of WT kcat/KM: FIXa-Y155F/K247N/N249S/R338E/T343R (protein) chain 1: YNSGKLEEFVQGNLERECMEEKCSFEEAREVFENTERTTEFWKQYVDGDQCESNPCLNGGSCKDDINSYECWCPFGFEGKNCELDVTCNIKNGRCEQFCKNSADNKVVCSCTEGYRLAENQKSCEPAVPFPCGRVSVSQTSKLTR chain 2: VVGGEDAKPGQFPWQVVLNGKVDAFCGGSIVNEKWIVTAAHCVETGVKITVVAGEHNIEETEHTEQNRSVIRIIPHHNYNAAINKYNHDIALLELDEPLVLNSYVTPICIADKEYTNIFLKFGSGYVSGWGRVFHKGRSALVLQYLRVPLVDRATCLESTKFRIYNNMFCAGFHEGGRDSCQGDSGGPHVTEVEGTSFLTGIISWGEECAMKGKYGIYTKVSRYVNWIKEKTKLT
Result string: 1579
